# Protocol summary: The drug is tested on Edwardsiella tarda strain: ATCC23685 for biotransformation. The drug concentrations were measured before and after a 12-h incubation by liquid-chromatography-coupled mass spectrometry (LC–MS)
# Cond: 2 µM

Molecule | Bacterial Biotransformation
C[C@@H]1CC[C@H]2[C@@H](C)C(=O)O[C@@H]3O[C@@]4(C)CC[C@@H]1[C@]32OO4 | Compound metabolized
N=C(N)NC(=O)Cc1c(Cl)cccc1Cl | Compound NOT metabolized
CN1C[C@H](C(=O)N[C@]2(C)O[C@@]3(O)[C@@H]4CCCN4C(=O)[C@H](Cc4ccccc4)N3C2=O)C=C2c3cccc4[nH]cc(c34)C[C@H]21.CN1C[C@H](C(=O)N[C@]2(C)O[C@@]3(O)[C@@H]4CCCN4C(=O)[C@H](Cc4ccccc4)N3C2=O)C=C2c3cccc4[nH]cc(c34)C[C@H]21.O=C(O)C(O)C(O)C(=O)O [ERGOTAMINE TARTRATE] | Compound metabolized
CCOc1ccccc1OCCN[C@H](C)Cc1ccc(OC)c(S(N)(=O)=O)c1.Cl [TAMSULOSIN HYDROCHLORIDE] | Compound NOT metabolized
C[C@]12C=CC(=O)C=C1CC[C@@H]1[C@@H]2C(=O)C[C@@]2(C)[C@H]1CC[C@]2(O)C(=O)CO | Compound NOT metabolized
CCN(CC)CCNC(C(=O)OCCC(C)C)c1ccccc1.Cl.Cl (centres undefined) | Compound NOT metabolized
Cc1ccnc2c1NC(=O)c1cccnc1N2C1CC1 | Compound NOT metabolized
C#C[C@]1(OC(C)=O)CC[C@H]2[C@@H]3CCC4=CC(=O)CC[C@@H]4[C@H]3CC[C@@]21C [NORETHINDRONE ACETATE] | Compound NOT metabolized
CCN(CC)CC#CCOC(=O)C(O)(c1ccccc1)C1CCCCC1.Cl (centres undefined) [OXYBUTYNIN CHLORIDE] | Compound metabolized
c1ccc([C@H]2CN3CCSC3=N2)cc1 | Compound metabolized
C[C@]12CCC(=O)C=C1[C@@H]1C[C@@H]1[C@H]1[C@@H]3[C@@H]4C[C@@H]4[C@@]4(CCC(=O)O4)[C@@]3(C)CC[C@@H]12 | Compound NOT metabolized
CN1CCC(OC(c2ccccc2)c2ccccc2)CC1 | Compound NOT metabolized
CC(C)c1nc(N(C)S(C)(=O)=O)nc(-c2ccc(F)cc2)c1/C=C/[C@@H](O)C[C@@H](O)CC(=O)[O-].CC(C)c1nc(N(C)S(C)(=O)=O)nc(-c2ccc(F)cc2)c1/C=C/[C@@H](O)C[C@@H](O)CC(=O)[O-].[Ca+2] | Compound NOT metabolized
CC(=O)OCC(=O)[C@@]12N=C(C)O[C@@H]1C[C@H]1[C@@H]3CCC4=CC(=O)C=C[C@]4(C)[C@H]3[C@@H](O)C[C@@]12C | Compound metabolized

###

# Cond: bacteroides fragilis, 12 h, 2 µM

Compound | Bacterial Biotransformation
CC(NC(C)(C)C)C(=O)c1cccc(Cl)c1 (centres undefined) | Compound NOT metabolized
CN1C(=O)CCS(=O)(=O)C1c1ccc(Cl)cc1 (centres undefined) | Compound NOT metabolized
Cc1ccc(NC(=O)c2ccc(CN3CCN(C)CC3)cc2)cc1Nc1nccc(-c2cccnc2)n1 | Compound NOT metabolized
C[C@@H]1C[C@H]2[C@@H]3CCC4=CC(=O)C=C[C@]4(C)[C@@]3(F)[C@@H](O)C[C@]2(C)[C@@]1(O)C(=O)CO | Compound metabolized
COC(=O)[C@H](c1ccccc1Cl)N1CCc2sccc2C1.O=S(=O)(O)O [CLOPIDOGREL BISULFATE] | Compound metabolized
COc1ccc(CCN(C)CCCC(C#N)(c2ccc(OC)c(OC)c2)C(C)C)cc1OC (centres undefined) | Compound NOT metabolized
COc1ccccc1OCC(O)CN1CCN(CC(=O)Nc2c(C)cccc2C)CC1 (centres undefined) | Compound NOT metabolized
O=C1CC2(CCCC2)CC(=O)N1CCCCN1CCN(c2ncccn2)CC1 | Compound NOT metabolized
c1ccc([C@H]2CN3CCSC3=N2)cc1 | Compound metabolized
N=C(N)NC(=O)Cc1c(Cl)cccc1Cl | Compound NOT metabolized
CN1CCC(=C2c3ccccc3CCc3cccnc32)CC1.O=C(O)/C=C\C(=O)O.O=C(O)/C=C\C(=O)O [AZATADINE MALEATE] | Compound NOT metabolized
COC1=CC(=O)C[C@@H](C)[C@]12Oc1c(Cl)c(OC)cc(OC)c1C2=O | Compound metabolized
OCCOCCN1CCN(C2=Nc3ccccc3Sc3ccccc32)CC1 | Compound NOT metabolized
CC(C)NCC(O)COc1ccc(COCCOC(C)C)cc1.CC(C)NCC(O)COc1ccc(COCCOC(C)C)cc1.O=C(O)/C=C/C(=O)O (centres undefined) [BISOPROLOL FUMARATE] | Compound NOT metabolized
CN(C)CC(c1ccc(O)cc1)C1(O)CCCCC1.O=C(O)CCC(=O)O (centres undefined) [DESVENLAFAXINE SUCCINATE] | Compound NOT metabolized
O=C1CN2Cc3c(ccc(Cl)c3Cl)N=C2N1 [ANAGRELIDE] | Compound NOT metabolized
CS(=O)(=O)O.OC(CCN1CCCCC1)(c1ccccc1)c1ccccc1 [PRIDINOL METHANESULFONATE] | Compound NOT metabolized
CCC1(c2ccc(N)cc2)CCC(=O)NC1=O (centres undefined) [AMINOGLUTETHIMIDE] | Compound NOT metabolized
CCCCC1=NC2(CCCC2)C(=O)N1Cc1ccc(-c2ccccc2-c2nnn[nH]2)cc1 | Compound metabolized
CN(CCOc1ccc(CC2SC(=O)NC2=O)cc1)c1ccccn1.O=C(O)/C=C\C(=O)O (centres undefined) [ROSIGLITAZONE MALEATE] | Compound NOT metabolized
CCOC(=O)C1=C(C)NC(C)=C(C(=O)OC)C1c1cccc([N+](=O)[O-])c1 (centres undefined) | Compound metabolized
C#C[C@]1(OC(C)=O)CC[C@H]2[C@@H]3CCC4=CC(=O)CC[C@@H]4[C@H]3CC[C@@]21C [NORETHINDRONE ACETATE] | Compound metabolized
CC(C)OC(=O)C(C)(C)Oc1ccc(C(=O)c2ccc(Cl)cc2)cc1 [FENOFIBRATE] | Compound NOT metabolized
O=C(O)c1cc(/N=N/c2ccc(S(=O)(=O)Nc3ccccn3)cc2)ccc1O | Compound metabolized
CN(C)CCOC(C)(c1ccccc1)c1ccccn1.O=C(O)CCC(=O)O (centres undefined) [DOXYLAMINE SUCCINATE] | Compound NOT metabolized
CCOc1ccccc1OCCN[C@H](C)Cc1ccc(OC)c(S(N)(=O)=O)c1.Cl [TAMSULOSIN HYDROCHLORIDE] | Compound NOT metabolized
COc1ccc2c(c1)c(CC(=O)O)c(C)n2C(=O)c1ccc(Cl)cc1 | Compound metabolized
CC(C)(C)NCC(O)c1cc(Cl)c(N)c(Cl)c1 (centres undefined) | Compound NOT metabolized
CC(=O)O[C@]1(C(C)=O)CC[C@H]2[C@@H]3C=C(Cl)C4=CC(=O)[C@@H]5C[C@@H]5[C@]4(C)[C@H]3CC[C@@]21C [CYPROTERONE ACETATE] | Compound metabolized
CC[C@@]1(O)C(=O)OCc2c1cc1n(c2=O)Cc2cc3c(CN(C)C)c(O)ccc3nc2-1 | Compound NOT metabolized
CC(CN1c2ccccc2Sc2ccccc21)N(C)C (centres undefined) | Compound NOT metabolized
CCN(CC)CCOC(=O)C1(C2CCCCC2)CCCCC1 | Compound NOT metabolized
CC(Oc1c(Cl)cccc1Cl)C1=NCCN1 (centres undefined) | Compound NOT metabolized
Cc1ccccc1N1C(=O)c2cc(S(N)(=O)=O)c(Cl)cc2NC1C (centres undefined) | Compound NOT metabolized
